Catalogue of compounds with associated melting point
result_type: melting point

COc1cccc(-n2c(C)c3cnn(-c4ccc(C(C)O)cc4)c(=O)c3c2C)c1 (stereo not shown) :: 192 to 195 °C
CC(=O)c1cccc(-n2c(C)c3cnn(-c4ccccc4)c(=O)c3c2C)c1 :: 202 to 204 °C
O=c1c2cn(-c3cccc(N4CCC4)c3)cc2cnn1-c1ccccn1 :: 190 to 192 °C
COc1cccc(-n2c(C)c3cnn(-c4ccc(C(C)(C)O)cc4)c(=O)c3c2C)c1 :: 103 to 108 °C
CCOC(=O)c1cccc(-n2c(C)c3cnn(-c4ccccn4)c(=O)c3c2C)c1 :: 86 to 90 °C
COc1ccccc1-n1ncc2c(C)n(-c3ccc(C)cc3)c(C)c2c1=O :: 202 °C
Cc1c2cnn(-c3ccccc3)c(=O)c2c(C)n1-c1cccc(N2CCCC2)c1 :: 228 to 229 °C
Cc1c2cnn(-c3ccccc3F)c(=O)c2c(C)n1-c1ccccc1 :: 226 °C
COc1cccc(-n2c(C)c3cnn(-c4ccc(C#N)cc4)c(=O)c3c2C)c1 :: 97 to 99 °C
COc1cccc(-n2c(C)c3cnn(-c4ccccc4)c(=O)c3c2C)c1 :: 213 to 215 °C
COc1cccc(-n2c(C)c3cnn(-c4ccc(O)nc4)c(=O)c3c2C)c1 :: 207 to 209 °C
Cc1c2cnn(-c3ncccn3)c(=O)c2c(C)n1-c1cccc(OC2CC2)c1Cl :: 228 °C
Cc1c2cnn(-c3ccccn3)c(=O)c2c(C)n1-c1cccc(-c2ccccc2)c1 :: 106 to 109 °C

----------
Biological target: human metabotropic glutamate 7 receptor (hmGlu7) (Homo sapiens, UniProt Q14831)
Sequence (Q14831 35-922 isoform Q14831-2): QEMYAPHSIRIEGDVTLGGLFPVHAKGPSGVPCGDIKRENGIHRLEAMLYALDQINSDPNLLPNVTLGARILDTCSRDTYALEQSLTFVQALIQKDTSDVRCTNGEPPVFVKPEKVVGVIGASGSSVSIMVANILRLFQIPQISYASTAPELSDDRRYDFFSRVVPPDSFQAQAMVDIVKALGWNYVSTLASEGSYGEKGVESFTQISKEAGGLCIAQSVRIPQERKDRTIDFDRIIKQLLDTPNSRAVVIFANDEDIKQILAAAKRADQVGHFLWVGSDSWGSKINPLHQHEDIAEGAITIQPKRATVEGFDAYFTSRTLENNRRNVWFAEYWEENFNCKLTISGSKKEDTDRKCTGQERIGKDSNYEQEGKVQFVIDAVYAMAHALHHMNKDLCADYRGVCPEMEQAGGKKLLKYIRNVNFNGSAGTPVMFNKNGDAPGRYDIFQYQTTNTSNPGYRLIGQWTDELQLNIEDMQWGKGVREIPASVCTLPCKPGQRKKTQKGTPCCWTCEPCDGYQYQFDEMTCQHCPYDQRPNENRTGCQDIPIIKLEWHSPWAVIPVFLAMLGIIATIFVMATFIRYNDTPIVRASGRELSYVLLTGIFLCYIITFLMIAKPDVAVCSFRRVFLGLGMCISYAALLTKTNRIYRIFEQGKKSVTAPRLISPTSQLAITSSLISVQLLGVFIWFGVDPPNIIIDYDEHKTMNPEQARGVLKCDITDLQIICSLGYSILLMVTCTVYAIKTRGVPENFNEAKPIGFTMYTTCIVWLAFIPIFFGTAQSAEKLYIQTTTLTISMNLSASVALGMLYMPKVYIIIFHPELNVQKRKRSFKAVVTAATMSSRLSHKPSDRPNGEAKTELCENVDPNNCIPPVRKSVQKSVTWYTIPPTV
Assay: mGlu7 assay on HEK-expressing human mGlu7: fluorescent cell based Ca2+ mobilization assay (FLIPR), inhibition of EC80 L-AP4 response
Conditions: HEK-293 cells expressing hmGlu7; EC80 L-AP4 stimulation; mean of at least three independent experiments in duplicate; read-out: Ca2+ Flux (mean IC50)
pIC50: −log10 of the molar value.
Reported pIC50 values for the following compounds.
result_type: pIC50

COc1cccc(-n2c(C)c3cnn(-c4cncnc4)c(=O)c3c2C)c1 :: 6.00 to 7.00
Cc1c2cnn(-c3ccccn3)c(=O)c2c(C)n1-c1ccc2c(c1)OCO2 :: 6.00 to 7.00
Cc1ccc(-n2c(C)c3cnn(-c4ccccn4)c(=O)c3c2C)cc1 :: 6.00 to 7.00
COc1ccc(-n2ncc3c(C)n(-c4cccc(N5CCC5)c4)c(C)c3c2=O)cc1CO :: > 7.00
COc1cccc(-n2c(C)c3cnn(-c4cc[nH]c(=O)c4)c(=O)c3c2C)c1 :: 6.00 to 7.00
Cc1c2cnn(-c3ccccn3)c(=O)c2c(C)n1-c1cccc(N2CCCCC2)c1 :: > 7.00
COc1cccc(-n2c(C)c3cnn(-c4cccc(OC)c4)c(=O)c3c2C)c1 :: > 7.00
COCCNc1cccc(-n2c(C)c3cnn(-c4ccccc4)c(=O)c3c2C)c1 :: 6.00 to 7.00
Cc1cc(-n2ncc3c(C)n(-c4cccc(N5CCC5)c4)c(C)c3c2=O)cc(C)n1 :: > 7.00
Cc1cnc(-n2ncc3c(C)n(-c4cccc(N5CCC5)c4)c(C)c3c2=O)nc1 :: > 7.00
COc1cc(-n2c(C)c3cnn(-c4ccccn4)c(=O)c3c2C)ccc1C :: 6.00 to 7.00
Cc1c2cnn(-c3ccc(N4CCNCC4)cc3)c(=O)c2c(C)n1-c1cccc(N2CCC2)c1 :: > 7.00
Cc1c2cnn(-c3ccccc3)c(=O)c2c(C)n1-c1cccc(Br)c1 :: 5.00 to 6.00
Cc1c2cnn(-c3ncccn3)c(=O)c2c(C)n1-c1cccc(N2CCC2)c1 :: 6.00 to 7.00
COc1cccc(-n2c(C)c3cnn(-c4ccc(CNC(C)=O)cc4)c(=O)c3c2C)c1 :: > 7.00
COc1cccc(-n2c(C)c3cnn(-c4ncccn4)c(=O)c3c2C)c1Cl :: 6.00 to 7.00
COc1ccc(-n2ncc3c(C)n(-c4cccc(OC)c4)c(C)c3c2=O)nc1 :: 6.00 to 7.00
Cc1c2cnn(-c3ccncc3)c(=O)c2c(C)n1-c1cccc(N2CCC2)c1 :: > 7.00
CC(=O)c1ccc(-n2c(C)c3cnn(-c4ccccc4)c(=O)c3c2C)cc1 :: > 7.00
COCc1cccc(-n2c(C)c3cnn(-c4ccccc4)c(=O)c3c2C)c1 :: 6.00 to 7.00
Cc1c2cnn(-c3ccccn3)c(=O)c2c(C)n1-c1ccc(F)c(N2CCC2)c1 :: 6.00 to 7.00
COCCOc1ccc(-n2ncc3c(C)n(-c4cccc(N5CCC5)c4)c(C)c3c2=O)cc1 :: > 7.00
Cc1c(O)cccc1-n1c(C)c2cnn(-c3ccc(N4CCOCC4)cc3)c(=O)c2c1C :: 5.00 to 6.00

The values you see were collected from patent US20240262833A1.
